# Procedure Summary: Inhibition of human TERT expression in H1299 cells at 100 uM after 24 hrs by secreted alkaline phosphatase reporter gene assay relative to control; values are per cent of control
# Condition Context: NCI-H1299
Answer each item with its documented level, % of control.

I would be grateful if you could share the reported level, % of control for COC(=O)[C@@H]1CCCN1CC(=O)Nc1cccc2c1C(=O)c1c(NC(=O)CN3CCC[C@H]3C(=O)OC)cccc1C2=O .
8%

I would be grateful if you could share the reported level, % of control for CNCCC(=O)Nc1cccc2c1C(=O)c1c(NC(=O)CCNC)cccc1C2=O .
22%

I would be grateful if you could share the reported level, % of control for CCNCC(=O)Nc1cccc2c1C(=O)c1c(NC(=O)CNCC)cccc1C2=O .
2%

I would be grateful if you could share the reported level, % of control for O=C(CNCc1cccc(C(F)(F)F)c1)Nc1cccc2c1C(=O)c1c(NC(=O)CNCc3cccc(C(F)(F)F)c3)cccc1C2=O .
33%

I would be grateful if you could share the reported level, % of control for CCN(CC)CCC(=O)Nc1cccc2c1C(=O)c1c(NC(=O)CCN(CC)CC)cccc1C2=O .
0%

I would be grateful if you could share the reported level, % of control for COC(=O)[C@H](CC(C)C)NCC(=O)Nc1cccc2c1C(=O)c1c(NC(=O)CN[C@@H](CC(C)C)C(=O)OC)cccc1C2=O .
88%

I would be grateful if you could share the reported level, % of control for COC(=O)[C@H](COC(C)(C)C)NCC(=O)Nc1cccc2c1C(=O)c1c(NC(=O)CN[C@@H](COC(C)(C)C)C(=O)OC)cccc1C2=O .
98%

I would be grateful if you could share the reported level, % of control for CC(C)(C)OC(=O)NCCNCCC(=O)Nc1cccc2c1C(=O)c1c(NC(=O)CCNCCNC(=O)OC(C)(C)C)cccc1C2=O .
33%

I would be grateful if you could share the reported level, % of control for COC(=O)[C@H](NCC(=O)Nc1cccc2c1C(=O)c1c(NC(=O)CN[C@@H](C(=O)OC)C(C)C)cccc1C2=O)C(C)C .
45%

I would be grateful if you could share the reported level, % of control for COc1cccc2c1C(=O)c1c(O)c3c(c(O)c1C2=O)C[C@@](O)(C(=O)CO)C[C@@H]3O[C@H]1C[C@H](N)[C@H](O)[C@H](C)O1 [DOXORUBICIN] .
5%

I would be grateful if you could share the reported level, % of control for CC(C)NCCC(=O)Nc1cccc2c1C(=O)c1c(NC(=O)CCNC(C)C)cccc1C2=O .
0%

I would be grateful if you could share the reported level, % of control for O=C1c2c(O)ccc(O)c2C(=O)c2c(NCCNCCO)ccc(NCCNCCO)c21 [MITOXANTRONE] .
7%

I would be grateful if you could share the reported level, % of control for COC(=O)CN(C)CC(=O)Nc1cccc2c1C(=O)c1c(NC(=O)CN(C)CC(=O)OC)cccc1C2=O .
73%

I would be grateful if you could share the reported level, % of control for CCN(CC)CC(=O)Nc1cccc2c1C(=O)c1c(NC(=O)CN(CC)CC)cccc1C2=O .
42%

I would be grateful if you could share the reported level, % of control for CCCN(CCC)CCC(=O)Nc1cccc2c1C(=O)c1c(NC(=O)CCN(CCC)CCC)cccc1C2=O .
4%

I would be grateful if you could share the reported level, % of control for COC(=O)[C@H](C)NCC(=O)Nc1cccc2c1C(=O)c1c(NC(=O)CN[C@@H](C)C(=O)OC)cccc1C2=O .
67%

I would be grateful if you could share the reported level, % of control for CN(C)CC(=O)Nc1cccc2c1C(=O)c1c(NC(=O)CN(C)C)cccc1C2=O .
84%

I would be grateful if you could share the reported level, % of control for CC(C)CNCCC(=O)Nc1cccc2c1C(=O)c1c(NC(=O)CCNCC(C)C)cccc1C2=O .
0%

I would be grateful if you could share the reported level, % of control for CCN(C)CC(=O)Nc1cccc2c1C(=O)c1c(NC(=O)CN(C)CC)cccc1C2=O .
20%

I would be grateful if you could share the reported level, % of control for COC(=O)[C@@H](NCC(=O)Nc1cccc2c1C(=O)c1c(NC(=O)CN[C@H](C(=O)OC)c3ccccc3)cccc1C2=O)c1ccccc1 .
42%

I would be grateful if you could share the reported level, % of control for COC(=O)[C@H](CCSC)NCC(=O)Nc1cccc2c1C(=O)c1c(NC(=O)CN[C@@H](CCSC)C(=O)OC)cccc1C2=O .
24%

I would be grateful if you could share the reported level, % of control for COC(=O)[C@@H](C)NCC(=O)Nc1cccc2c1C(=O)c1c(NC(=O)CN[C@H](C)C(=O)OC)cccc1C2=O .
66%

I would be grateful if you could share the reported level, % of control for COC(=O)[C@@H](NCC(=O)Nc1cccc2c1C(=O)c1c(NC(=O)CN[C@H](C(=O)OC)C(C)C)cccc1C2=O)C(C)C .
0%

I would be grateful if you could share the reported level, % of control for CC(C)NCC(=O)Nc1cccc2c1C(=O)c1c(NC(=O)CNC(C)C)cccc1C2=O .
35%

I would be grateful if you could share the reported level, % of control for CN(C)CCCCNCCC(=O)Nc1cccc2c1C(=O)c1c(NC(=O)CCNCCCCN(C)C)cccc1C2=O .
4%

I would be grateful if you could share the reported level, % of control for CCCN(CCC)CC(=O)Nc1cccc2c1C(=O)c1c(NC(=O)CN(CCC)CCC)cccc1C2=O .
94%

I would be grateful if you could share the reported level, % of control for CN(C)CCC(=O)Nc1cccc2c1C(=O)c1c(NC(=O)CCN(C)C)cccc1C2=O .
0%

I would be grateful if you could share the reported level, % of control for CCCN(C)CC(=O)Nc1cccc2c1C(=O)c1c(NC(=O)CN(C)CCC)cccc1C2=O .
45%

I would be grateful if you could share the reported level, % of control for CC(C)CNCC(=O)Nc1cccc2c1C(=O)c1c(NC(=O)CNCC(C)C)cccc1C2=O .
77%

I would be grateful if you could share the reported level, % of control for CN(C)CCCNCCC(=O)Nc1cccc2c1C(=O)c1c(NC(=O)CCNCCCN(C)C)cccc1C2=O .
20%

I would be grateful if you could share the reported level, % of control for CCN(C)CCC(=O)Nc1cccc2c1C(=O)c1c(NC(=O)CCN(C)CC)cccc1C2=O .
0%

I would be grateful if you could share the reported level, % of control for O=C(CCNCc1cc(F)cc(F)c1)Nc1cccc2c1C(=O)c1c(NC(=O)CCNCc3cc(F)cc(F)c3)cccc1C2=O .
3%

I would be grateful if you could share the reported level, % of control for COC(=O)CNCC(=O)Nc1cccc2c1C(=O)c1c(NC(=O)CNCC(=O)OC)cccc1C2=O .
12%
